Biological target: BRAF-GTP-KRAS-G12C complex (Homo sapiens, UniProt P01116+P62937, G12C)
Construct: 50 nM of His6-KRas G12C-GTP (1-169); 500 nM of tagless CypA (1-165)
Assay: KRAS-BRAF complex disruption through competition with CYPA-compound by TR-FRET
Conditions: biochemical BRAF-KRAS G12C-GTP disruption assay EC50, with CYPA
pEC50: −log10 of the molar value.
Listing of recorded pEC50 by entry.

// pEC50 lookup, molecule = CC1COC(=O)C2CCCN(N2)C(=O)C(NC(=O)C(C(C)C)N(C)C(=O)C2CN(C(=O)CCl)C2)Cc2cc(O)cc(c2)-c2ccc3c(c2)c(cn3CC2COC2)C1 (mixture of isomers) , result: ≥ 6.30

Lab book: pEC50 of CC1COC(=O)[C@@H]2CCCN(N2)C(=O)[C@@H](NC(=O)[C@H](C(C)C)N(C)C(=O)C2CN(C(=O)CCl)C2)Cc2cc(O)cc(c2)-c2ccc3c(c2)N(CCO3)C1 (single isomer, unassigned) [Compound 183] noted as 5.30 to 6.30

For reference, reported pEC50 for CC(C)[C@@H](C(=O)N[C@H]1Cc2cc(O)cc(c2)-c2ccc3c(C4(C#N)CCC4)cn(c3c2)C[C@H](C)COC(=O)[C@@H]2CCCN(N2)C1=O)N(C)C(=O)C1CN(C(=O)CCl)C1 stands at ≥ 6.30

Documented pEC50 of CCc1c(-c2ccccc2OC)n2c3cc(ccc13)-c1cc(O)cc(c1)C[C@H](NC(=O)[C@H](C(C)C)N(C)C(=O)C1CN(C(=O)CCl)C1)C(=O)N1CCC[C@H](N1)C(=O)OC[C@@H](C)C2 : ≥ 6.30

molecule CC(C)[C@@H](C(=O)N[C@H]1Cc2cc(O)cc(c2)-c2ccc3c(c2)N(CC(C)(C)COC(=O)[C@@H]2CCCN(N2)C1=O)C(=O)C3)N(C)C(=O)C1CN(C(=O)CCl)C1 , pEC50 observed: ≥ 6.30

# pEC50 (molecule: CC(C)[C@@H](C(=O)N[C@H]1Cc2cc(O)cc(c2)-c2ccc3c(-c4cccnc4)cn(c3c2)C[C@H](C)COC(=O)[C@@H]2CCCN(N2)C1=O)N(C)C(=O)C1CN(C(=O)CCl)C1 ) is ≥ 6.30
